# test target: Carnitine O-palmitoyltransferase 1, liver isoform (Rattus norvegicus, UniProt P32198)
# Sequence (P32198 whole entry): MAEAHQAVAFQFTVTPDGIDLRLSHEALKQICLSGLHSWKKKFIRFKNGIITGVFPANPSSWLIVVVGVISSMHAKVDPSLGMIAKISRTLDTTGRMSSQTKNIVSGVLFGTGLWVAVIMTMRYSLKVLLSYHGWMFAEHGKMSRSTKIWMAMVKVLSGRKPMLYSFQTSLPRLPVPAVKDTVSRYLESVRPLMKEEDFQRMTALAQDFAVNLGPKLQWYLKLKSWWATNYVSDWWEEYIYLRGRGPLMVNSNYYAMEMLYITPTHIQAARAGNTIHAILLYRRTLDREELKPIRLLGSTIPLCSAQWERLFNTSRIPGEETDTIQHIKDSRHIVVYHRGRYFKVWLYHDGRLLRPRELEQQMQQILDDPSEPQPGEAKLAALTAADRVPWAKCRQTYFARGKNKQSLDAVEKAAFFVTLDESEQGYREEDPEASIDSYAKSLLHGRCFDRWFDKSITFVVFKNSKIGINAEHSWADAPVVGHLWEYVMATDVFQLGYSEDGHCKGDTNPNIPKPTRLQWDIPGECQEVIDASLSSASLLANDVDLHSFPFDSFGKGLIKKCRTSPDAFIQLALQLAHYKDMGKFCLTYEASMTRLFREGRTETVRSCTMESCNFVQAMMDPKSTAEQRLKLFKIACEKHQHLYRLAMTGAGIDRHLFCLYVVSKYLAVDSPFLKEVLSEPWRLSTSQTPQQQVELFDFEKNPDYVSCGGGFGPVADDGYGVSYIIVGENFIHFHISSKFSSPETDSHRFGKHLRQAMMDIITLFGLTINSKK
# measurement description: Inhibition of rat liver mitochondrial carnitine palmitoyltransferase 1 using [14C]palmitoyl-CoA radioligand
The following compounds are listed with their measured IC50 values.

- compound: "CCCCCCCCCNS(=O)(=O)NC(CC(=O)[O-])C[N+](C)(C)C (stereo not given)"
  observed measurement: "2.3 µM"
- compound: "CCCCCCCCCCCCCCNC(CC(=O)[O-])C[N+](C)(C)C (stereo not given)"
  observed measurement: "230 µM"
- compound: "CCCCCCCCOC(CC(=O)[O-])C[N+](C)(C)C (stereo not given)"
  observed measurement: "> 300 µM"
- compound: "CCCCCCCCCCCNS(=O)(=O)N[C@@H](CC(=O)[O-])C[N+](C)(C)C"
  observed measurement: "6 µM"
- compound: "CCCCCCCCCCCNS(=O)(=O)N[C@H](CC(=O)[O-])C[N+](C)(C)C"
  observed measurement: "0.8 µM"
- compound: "CCCCCCCCCNC(=O)OC(C[n+]1ccccc1)CP(=O)(O)O (stereo not given)"
  observed measurement: "> 300 µM"
- compound: "CCCCCCCCCCCCS(=O)(=O)N[C@@H](CC(=O)[O-])C[N+](C)(C)C"
  observed measurement: "6 µM"
- compound: "CCCCCCCCOC(=O)NC(CC(=O)[O-])C[N+](C)(C)C (stereo not given)"
  observed measurement: "22.3 µM"

Item under review: CCCCCCCCCCCCCCOC(Cc1nn[n-]n1)C[N+](C)(C)C (stereo not given) . Reported IC50?
> 300 µM

Another compound to look at: CCCCCCCCCCCCCCOC(=O)OC(CC(=O)[O-])C[N+]12CCC(CC1)CC2 (stereo not given)
> 300 µM

Source of measurements: ChEMBL document CHEMBL1134532
